Origin of measurements: patent US7078414B2

Counter-ions that a name gives are not always drawn.
endpoint_label: melting point
# answer = value followed by unit

Completed entries (count: 2):
CC(=O)O.Cc1cn(-c2ccc3ccccc3n2)cc1C(=O)NC(=N)N [Example 29]	264.4 °C
Cl.N=C(N)NC(=O)c1cn(-c2ccnc3ccccc23)cc1C1CC1 [Example 12]	185 °C

Problem: Return melting point (reported value) for this compound: N=C(N)NC(=O)c1ccn(-c2cccc3cccnc23)c1 [Example 7]
Solution: 155 °C

Problem: Read off the recorded melting point for Cc1c(C(=O)N=C(N)N)ccn1-c1ccnc2ccccc12 (as salt: hydrochloride) [Example 3, dihydrochloride]
Solution: 240 °C

====

Target: NHE-1 subtype (Homo sapiens, UniProt P19634)
Sequence (P19634 whole entry): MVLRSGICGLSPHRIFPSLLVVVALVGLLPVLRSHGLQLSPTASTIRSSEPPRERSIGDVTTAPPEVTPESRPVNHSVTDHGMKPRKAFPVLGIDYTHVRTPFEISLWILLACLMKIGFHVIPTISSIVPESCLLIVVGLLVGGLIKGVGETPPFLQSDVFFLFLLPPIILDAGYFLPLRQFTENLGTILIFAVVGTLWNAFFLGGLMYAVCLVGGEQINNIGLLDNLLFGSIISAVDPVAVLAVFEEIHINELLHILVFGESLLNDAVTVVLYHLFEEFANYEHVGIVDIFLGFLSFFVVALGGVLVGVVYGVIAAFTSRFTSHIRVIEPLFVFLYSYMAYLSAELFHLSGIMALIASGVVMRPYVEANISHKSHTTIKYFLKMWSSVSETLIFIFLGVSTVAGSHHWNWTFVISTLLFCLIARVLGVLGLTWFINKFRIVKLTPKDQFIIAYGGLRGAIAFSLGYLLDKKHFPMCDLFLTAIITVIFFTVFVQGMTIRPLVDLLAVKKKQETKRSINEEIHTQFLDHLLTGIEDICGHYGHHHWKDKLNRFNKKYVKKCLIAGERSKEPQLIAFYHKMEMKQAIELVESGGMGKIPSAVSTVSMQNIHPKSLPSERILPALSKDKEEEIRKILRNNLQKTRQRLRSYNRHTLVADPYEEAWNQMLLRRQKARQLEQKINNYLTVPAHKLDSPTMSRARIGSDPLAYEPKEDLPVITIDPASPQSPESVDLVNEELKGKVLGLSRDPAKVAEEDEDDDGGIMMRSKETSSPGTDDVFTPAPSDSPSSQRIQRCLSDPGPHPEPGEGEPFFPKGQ
Assay: NHE inhibition FLIPR test (intracellular pH recovery, BCECF) in transfected LAP-1 cell lines expressing NHE subtypes
Settings: transfected LAP-1 cells expressing NHE-1 subtype, read-out: IC50 (NHE1)
pIC50: −log10 of the molar value. Counter-ions that a name gives are not always drawn.
Would you mind labelling by pIC50? At or over 8 is YES, under is NO.

Answered examples (4):
N=C(N)NC(=O)c1cn(-c2nccc3ccccc23)cc1C(F)(F)F [Example 15, hydrochloride]	YES
NC(N)=NC(=O)c1ccn(-c2ccnc3cc(Cl)ccc23)c1	NO
NC(N)=NC(=O)c1ccn(-c2ccnc3ccccc23)c1 [Example 2, dihydrochloride]	NO
Cc1cn(-c2cccnc2)cc1C(=O)NC(=N)N	YES

Problem: Could you verify whether the entry Cl.N=C(N)NC(=O)c1cn(-c2ccnc3ccccc23)cc1C1CC1 [Example 12, dihydrochloride] shows pIC50 of no less than 8?
Solution: YES
